Here the recorded Emax at 30 µM is given for each entry.
Target: soluble guanylate cyclase (sGC) (Homo sapiens (Human), UniProt Q02108+Q02153)
Sequence (Q02153 whole entry): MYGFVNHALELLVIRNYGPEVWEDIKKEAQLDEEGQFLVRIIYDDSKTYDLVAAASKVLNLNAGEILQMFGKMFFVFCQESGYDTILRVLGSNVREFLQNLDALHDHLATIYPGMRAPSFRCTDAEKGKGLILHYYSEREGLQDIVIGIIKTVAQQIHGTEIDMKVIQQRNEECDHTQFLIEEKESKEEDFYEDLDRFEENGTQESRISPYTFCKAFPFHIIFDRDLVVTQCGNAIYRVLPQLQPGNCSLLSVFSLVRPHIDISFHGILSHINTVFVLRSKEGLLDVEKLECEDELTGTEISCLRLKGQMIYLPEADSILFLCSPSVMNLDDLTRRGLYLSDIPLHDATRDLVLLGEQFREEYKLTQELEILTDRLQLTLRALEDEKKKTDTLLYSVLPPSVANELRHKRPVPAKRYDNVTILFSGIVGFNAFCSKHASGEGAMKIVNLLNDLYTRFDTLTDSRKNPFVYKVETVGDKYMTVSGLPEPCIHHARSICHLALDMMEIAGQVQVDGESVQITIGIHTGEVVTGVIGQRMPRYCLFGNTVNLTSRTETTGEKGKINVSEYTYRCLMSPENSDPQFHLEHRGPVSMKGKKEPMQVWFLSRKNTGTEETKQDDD
Sequence (Q02108 whole entry): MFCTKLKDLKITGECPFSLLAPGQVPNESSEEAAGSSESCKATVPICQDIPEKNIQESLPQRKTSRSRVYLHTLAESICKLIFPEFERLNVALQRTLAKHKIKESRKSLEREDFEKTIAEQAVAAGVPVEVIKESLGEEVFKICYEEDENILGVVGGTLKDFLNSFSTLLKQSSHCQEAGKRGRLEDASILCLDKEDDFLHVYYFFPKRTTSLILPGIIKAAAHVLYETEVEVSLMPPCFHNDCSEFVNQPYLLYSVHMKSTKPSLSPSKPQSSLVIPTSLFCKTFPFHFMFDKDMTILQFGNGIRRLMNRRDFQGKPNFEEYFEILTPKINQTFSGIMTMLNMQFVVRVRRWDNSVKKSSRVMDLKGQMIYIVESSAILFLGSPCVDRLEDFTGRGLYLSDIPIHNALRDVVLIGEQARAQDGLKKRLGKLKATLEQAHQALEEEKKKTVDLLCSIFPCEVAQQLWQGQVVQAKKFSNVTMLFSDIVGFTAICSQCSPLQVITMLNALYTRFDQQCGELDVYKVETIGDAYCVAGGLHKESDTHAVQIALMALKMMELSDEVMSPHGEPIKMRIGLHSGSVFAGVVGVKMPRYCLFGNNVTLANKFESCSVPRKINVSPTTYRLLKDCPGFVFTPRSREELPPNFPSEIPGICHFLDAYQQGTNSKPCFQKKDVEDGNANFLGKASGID
Experiment: sGC-HEK-cGMP assay run with SNP incubation (HEK WC assay)
Assay type: cell-based
Details: read-out: HEK WC Assay (% Emax at 30 μM/with 10 uM SNP)
Method: Human embryonic kidney cells (HEK293), endogenously expressing soluble guanylate cyclase (sGC), were used to evaluate the activity of test compounds. Compounds stimulating the sGC receptor should cause an increase in the intracellular concentration of cGMP. […] EC50 values were calculated from concentration-response curves generated with GraphPad Prism Software.

>>> measuredresult("Fc1ccccc1Cn1nc(-c2ncccn2)cc1-c1ccccn1")
"20 to 40%"

Query: Return Emax at 30 µM (reported value) for this compound: Cc1nc2c(N)nc(-c3cc(-c4nccs4)n(Cc4ccccc4F)n3)nc2[nH]1
Reply: 20 to 40%

Query: Return Emax at 30 µM (reported value) for this compound: Cc1cccc(-c2cc(-c3ncccn3)n(Cc3ccccc3F)n2)n1
Reply: 0 to 10%

Query: Return Emax at 30 µM (reported value) for this compound: Nc1ccnc(-c2cc(-c3nccs3)n(Cc3ccccc3F)n2)n1
Reply: 60 to 80%

Query: Return Emax at 30 µM (reported value) for this compound: Fc1ccccc1Cn1nc(-c2ccccn2)cc1-c1ncccn1
Reply: 0 to 10%

Query: Return Emax at 30 µM (reported value) for this compound: Fc1ccccc1Cn1nc(-c2ncccn2)cc1C1CC1
Reply: 0 to 10%

----------
Molecular target: soluble guanylate cyclase (sGC) (Homo sapiens (Human), UniProt Q02108+Q02153)
Assay: sGC-HEK-cGMP assay run with SNP incubation (HEK WC assay)
Assay type: cell-based
Details: read-out: HEK WC Assay (% Emax at 30 uM/with 10 uM SNP)
Here the recorded Emax at 30 µM is given for each entry.

>>> measuredresult("Fc1ccccc1Cn1nc(-c2ccccn2)cc1-c1ccco1 [Compound I-61]")
"20 to 40%"
>>> measuredresult("Fc1ccc(-c2cc(-c3ccccn3)nn2Cc2ccccc2F)cc1 [Compound I-12]")
"0 to 10%"
>>> measuredresult("Cc1cc(-c2cc(-c3ncccn3)nn2Cc2ccccc2F)c(C)s1 [Compound I-14]")
"0 to 10%"
>>> measuredresult("Fc1ccccc1Cn1nc(-c2ncccn2)cc1-c1nccs1 [Compound I-33]")
"40 to 60%"

Query: Return Emax at 30 µM (reported value) for this molecule: Fc1ccccc1Cn1nc(-c2ccc(Br)cn2)cc1-c1ccccn1 [Compound I-52]
Reply: 0 to 10%

Query: Return Emax at 30 µM (reported value) for this molecule: Fc1ccccc1Cn1nc(-c2ncccn2)cc1-c1ccccc1F [Compound I-59]
Reply: 0 to 10%

Query: Return Emax at 30 µM (reported value) for this molecule: Cc1ccc(-c2cc(-c3ccccn3)nn2Cc2ccccc2F)cc1 [Compound I-23]
Reply: 0 to 10%

----------
Target: soluble guanylate cyclase (sGC) (Homo sapiens (Human), UniProt Q02108+Q02153)
Assay: sGC-HEK-cGMP assay run with SNP incubation (HEK WC assay)
Type: cell-based
Conditions: read-out: HEK WC Assay (% Emax at 30 uM/with 10 uM SNP)
Here the recorded Emax at 30 µM is given for each entry.

>>> measuredresult("Fc1ccccc1Cn1nc(-c2ccccn2)cc1-c1ccccn1")
"10 to 20%"
>>> measuredresult("Cc1ccc(-c2c(C#N)c(-c3ncccn3)nn2Cc2ccccc2F)cc1")
"0 to 10%"
>>> measuredresult("Fc1ccccc1Cn1nc(-c2ccccn2)c(I)c1-c1ccccn1")
"0 to 10%"
>>> measuredresult("Nc1ccnc(-c2cc(-c3ccccn3)nn2Cc2ccccc2F)n1")
"0 to 10%"

Now consider a different molecule.
Query: Write Emax at 30 µM of Fc1ccccc1Cn1nc(-c2ccccn2)cc1-c1cnccn1 ; system used: soluble guanylate cyclase (sGC) (Homo sapiens (Human), UniProt Q02108+Q02153)
Reply: 0 to 10%

----------
Here the recorded Emax is given for each entry.
Target: soluble guanylate cyclase (sGC) (Homo sapiens (Human), UniProt Q02108+Q02153)
Assay: sGC-HEK-cGMP assay run with SNP incubation (HEK WC assay)
Assay type: cell-based
Conditions: read-out: HEK WC Assay (% Emax at 10 μM with 10 uM SNP)

// known answers, use as guide
>>> measuredresult("CC(C)(C)C(=O)Nc1cnc(-c2cc(-c3ccon3)n(Cc3ccccc3F)n2)nc1N")
"80 to 100%"
>>> measuredresult("CC1(C(=O)Nc2cnc(-c3cc(-c4ccon4)n(Cc4ccccc4F)n3)nc2N)CCCO1 (stereo not shown)")
"60 to 80%"
>>> measuredresult("Nc1nc(-c2cc(-c3ccon3)n(Cc3ccccc3F)n2)ncc1Nc1nccs1")
"80 to 100%"
>>> measuredresult("N#Cc1cnc(-c2cc(-c3ncco3)n(Cc3ccccc3F)n2)nc1O")
"40 to 60%"

Query: Write Emax of C=C(C)C(=O)Nc1cnc(-c2cc(-c3ccon3)n(Cc3ccccc3F)n2)nc1N ; system used: soluble guanylate cyclase (sGC) (Homo sapiens (Human), UniProt Q02108+Q02153)
Reply: 60 to 80%

Query: Write Emax of CCOC(=O)c1cnc(-c2cc(-c3ccon3)n(Cc3ccccc3F)n2)nc1NCc1ccc(OC)cc1 ; system used: soluble guanylate cyclase (sGC) (Homo sapiens (Human), UniProt Q02108+Q02153)
Reply: 0 to 10%

Query: Write Emax of Nc1nc(-c2cc(-c3ccon3)n(Cc3ccccc3F)n2)ncc1N1CCCC1=O ; system used: soluble guanylate cyclase (sGC) (Homo sapiens (Human), UniProt Q02108+Q02153)
Reply: 40 to 60%

Query: Write Emax of Nc1nc(-c2cc(-c3ccon3)n(Cc3ccccc3F)n2)ncc1NC(=O)OCc1ccccc1 ; system used: soluble guanylate cyclase (sGC) (Homo sapiens (Human), UniProt Q02108+Q02153)
Reply: 80 to 100%

Query: Write Emax of Nc1nc(-c2cc(-c3ncco3)n(Cc3ccccc3F)n2)ncc1NC(=O)c1ccccc1 ; system used: soluble guanylate cyclase (sGC) (Homo sapiens (Human), UniProt Q02108+Q02153)
Reply: 60 to 80%

Query: Write Emax of Nc1nc(-c2cc(-c3ccon3)n(Cc3ccccc3F)n2)ncc1NC(=O)c1cccc(O)n1 ; system used: soluble guanylate cyclase (sGC) (Homo sapiens (Human), UniProt Q02108+Q02153)
Reply: 40 to 60%

Query: Write Emax of Oc1ccnc(-c2cc(-c3ccon3)n(Cc3ccccc3F)n2)n1 ; system used: soluble guanylate cyclase (sGC) (Homo sapiens (Human), UniProt Q02108+Q02153)
Reply: 40 to 60%

Query: Write Emax of Oc1nc(-c2cc(-c3ccon3)n(Cc3ccccc3F)n2)ncc1Cl ; system used: soluble guanylate cyclase (sGC) (Homo sapiens (Human), UniProt Q02108+Q02153)
Reply: 60 to 80%

Query: Write Emax of Nc1nc(-c2cc(-c3ccon3)n(Cc3ccccc3F)n2)ncc1NC(=O)c1cccc(C(F)(F)F)c1 ; system used: soluble guanylate cyclase (sGC) (Homo sapiens (Human), UniProt Q02108+Q02153)
Reply: 80 to 100%

----------
Here the recorded Emax is given for each entry.
Biological target: soluble guanylate cyclase (sGC) (Homo sapiens (Human), UniProt Q02108+Q02153)
Experiment: sGC-HEK-cGMP assay run with SNP incubation (HEK WC assay)
Assay type: cell-based
Details: read-out: HEK WC Assay (% Emax at 10 μM with 10 uM SNP)

>>> measuredresult("Nc1nc(-c2cc(-c3ccon3)n(Cc3ccccc3F)n2)ncc1NC(=O)c1cccnc1")
"60 to 80%"
>>> measuredresult("COC(=O)Nc1cnc(-c2cc(-c3ccon3)n(Cc3ccccc3F)n2)nc1N")
"100 to 120%"
>>> measuredresult("Fc1ccccc1Cn1nc(-c2ccccn2)cc1N1CCC1")
"0 to 10%"
>>> measuredresult("COc1oc(-c2cc(-c3ncccn3)nn2Cc2ccccc2F)nc1C")
"0 to 10%"
>>> measuredresult("c1cnc(-c2cc(-c3ccon3)n(Cc3cnccn3)n2)nc1")
"0 to 10%"

Query: Return Emax (reported value) for this compound: Cc1nc(-c2cc(-c3ccon3)n(Cc3ccccc3F)n2)nc(O)c1F
Reply: 10 to 20%

Query: Return Emax (reported value) for this compound: CC(C)(CO)C(=O)Nc1cnc(-c2cc(-c3ccon3)n(Cc3ccccc3F)n2)nc1N
Reply: 60 to 80%

Query: Return Emax (reported value) for this compound: CCCC(F)(F)C(=O)Nc1cnc(-c2cc(-c3ccon3)n(Cc3ccccc3F)n2)nc1N
Reply: 40 to 60%

----------
Here the recorded Emax at 10 µM is given for each entry.
Target: soluble guanylate cyclase (sGC) (Homo sapiens (Human), UniProt Q02108+Q02153)
Assay: sGC-HEK-cGMP assay run with SNP incubation (HEK WC assay)
Type: cell-based
Settings: read-out: HEK WC Assay (% Emax at 10 μM/with 10 uM SNP)

// known answers, use as guide
>>> measuredresult("Nc1nc(-c2cc(-c3ccon3)n(Cc3ccccc3F)n2)ncc1C1CC1")
"40 to 60%"
>>> measuredresult("Oc1cccc(-c2cc(-c3ccccn3)nn2Cc2ccccc2F)n1")
"0 to 10%"
>>> measuredresult("COC(=O)Nc1c(N)nc(-c2cc(-c3nccs3)n(Cc3ccccc3F)n2)nc1N")
"10 to 20%"
>>> measuredresult("Nc1nc(-c2cc(-c3ccon3)n(Cc3ccccc3F)n2)ncc1C1(O)CC1")
"> 120%"
>>> measuredresult("COC(=O)N(C)c1c(N)nc(-c2cc(-c3ccccn3)n(Cc3ccccc3F)n2)nc1N")
"0 to 10%"
>>> measuredresult("CS(=O)(=O)c1ccc(-c2cc(-c3ccccn3)nn2Cc2ccccc2F)nc1")
"0 to 10%"
>>> measuredresult("C=CCOC1(c2cnc(-c3cc(-c4ccon4)n(Cc4ccccc4F)n3)nc2N)CC1")
"60 to 80%"
>>> measuredresult("COc1ccc(C2=Nc3nc(-c4cc(-c5ccon5)n(Cc5ccccc5F)n4)ncc3C(C)(C)O2)cc1")
"100 to 120%"

Query: Return Emax at 10 µM (reported value) for this molecule: CC(C)(C)c1cnc(-c2cc(-c3ccon3)n(Cc3ccccc3F)n2)nc1N
Reply: 40 to 60%

Query: Return Emax at 10 µM (reported value) for this molecule: COC(=O)Nc1c(N)nc(-c2cc(-c3ccccn3)n(Cc3ccccc3F)n2)nc1N
Reply: 0 to 10%

Query: Return Emax at 10 µM (reported value) for this molecule: CCOC(=O)c1cnc(-c2cc(-c3ccon3)n(Cc3ccccc3F)n2)nc1NCc1ccc(OC)cc1
Reply: 20 to 40%

Query: Return Emax at 10 µM (reported value) for this molecule: Nc1nc(-c2cc(-c3ccon3)n(Cc3ccccc3F)n2)ncc1NC(=O)c1ccccc1
Reply: > 120%
